Assay: GMX002 lung tissue PTX concentration after local lung lavage
Type: in vivo, porcine
Details: pig, lung, caudal lobe of the treated right lung, 32000 ng/mL, Lung PTX concentration, RT Caud Lung, local lavage of right lung, 20 min; animal 19P1241
ENDPOINT: concentration at 20 min (ng/g)
Give bare numbers, in ng/g.

concentration at 20 min reading for CC(=O)O[C@H]1C(=O)[C@@]2(C)[C@H]([C@H](OC(=O)c3ccccc3)[C@]3(O)C[C@H](OC(=O)[C@H](O)[C@@H](NC(=O)c4ccccc4)c4ccccc4)C(C)=C1C3(C)C)[C@]1(OC(C)=O)CO[C@@H]1C[C@@H]2O : 34600

---

Assay: GMX001 plasma PTX concentration after systemic infusion (LC/MS)
Assay type: in vivo, porcine
Conditions: pig, intravenous, 175 mg/m^2, Blood PTX concentration, systemic infusion, animal 19P0997, 12 hr
Protocol: The systemic studies were denoted GMX001 and local administration studies GMX002. For GMX001 (systemic), anatomy permitting, 2 animals were used and divided into a 3 hour animal and a 72 hour animal. For GMX001, both animals underwent surgery to place two (2) CVL catheters, 1 for infusion and 1 for plasma collection. The animals were allowed to recover and stabilize.
ENDPOINT: concentration at 12 h (ng/mL)
Answers are plain numbers, in ng/mL.

# compound CC(=O)O[C@H]1C(=O)[C@@]2(C)[C@H]([C@H](OC(=O)c3ccccc3)[C@]3(O)C[C@H](OC(=O)[C@H](O)[C@@H](NC(=O)c4ccccc4)c4ccccc4)C(C)=C1C3(C)C)[C@]1(OC(C)=O)CO[C@@H]1C[C@@H]2O [PTX] ; its concentration at 12 h = 20500

---

Experiment: GMX001 plasma PTX concentration after systemic infusion (LC/MS)
Type: in vivo, porcine
Settings: pig, intravenous, 175 mg/m^2, Blood PTX concentration, systemic infusion, animal 19P0997, 6 hr
ENDPOINT: concentration at 6 h (ng/mL)
Give bare numbers, in ng/mL.

# concentration at 6 h (molecule: CC(=O)O[C@H]1C(=O)[C@@]2(C)[C@H]([C@H](OC(=O)c3ccccc3)[C@]3(O)C[C@H](OC(=O)[C@H](O)[C@@H](NC(=O)c4ccccc4)c4ccccc4)C(C)=C1C3(C)C)[C@]1(OC(C)=O)CO[C@@H]1C[C@@H]2O [PTX] ) is 28500

---

Assay: GMX002 plasma PTX concentration after local lung lavage
Type: in vivo, porcine
Details: pig, plasma, other: local lung lavage (right lung, via catheter), 32000 ng/mL (lavage solution); local; 5 minutes post local infusion; read-out: maximum concentration in plasma (Cmax)
ENDPOINT: Cmax

The compound listed as CC(=O)O[C@H]1C(=O)[C@@]2(C)[C@H]([C@H](OC(=O)c3ccccc3)[C@]3(O)C[C@H](OC(=O)[C@H](O)[C@@H](NC(=O)c4ccccc4)c4ccccc4)C(C)=C1C3(C)C)[C@]1(OC(C)=O)CO[C@@H]1C[C@@H]2O has a reported Cmax of 27.6 ng/mL

---

Assay: in vivo
Conditions: pig, lung tissue (RT caud lung), intravenous, 175 mg/m^2
ENDPOINT: concentration at 3 h (ng/g)
Answers are plain numbers, in ng/g.

GET /value?item= CC(=O)O[C@H]1C(=O)[C@@]2(C)[C@H]([C@H](OC(=O)c3ccccc3)[C@]3(O)C[C@H](OC(=O)[C@H](O)[C@@H](NC(=O)c4ccccc4)c4ccccc4)C(C)=C1C3(C)C)[C@]1(OC(C)=O)CO[C@@H]1C[C@@H]2O &field=concentration at 3 h returns 42900

The reported numbers originate from patent US20230073301A1.
